System: NCI-H226 lung
assay procedure: NCI tumour cell line growth inhibition, 384-well format; in the data active = GI50 below about 0.43 µM; inactive = the rest
Your response should consist of one outcome taken from 1 (active), -1 (inactive)

Challenge: Give the logged outcome of this assay for the following molecule: O=P1(S)OC[C@H]2O[C@@H]3[C@H](F)[C@@H]2OP(O)(=S)OC[C@H]2O[C@H]([C@H](F)[C@@H]2O1)n1cnc2c(ncnc21)NC/C=C/CNc1ncnc2c1ncn23 (some centres undefined)
Response given: 1

Challenge: Give the logged outcome of this assay for the following molecule: "CCN(c1cc(-c2ccc(CN3CCOCC3)cc2)cc(C(=O)NCc2c(C)cc(C)[nH]c2=O)c1C)C1CCOCC1"
Response given: -1

Challenge: Give the logged outcome of this assay for the following molecule: "Cc1nc2ccc(NC(=O)CCNC(=O)CCCc3ccc(CC(C(=O)O)C(=O)O)cc3)cc2s1"
Response given: -1

We next turn to a different molecule, shown below.
Challenge: Give the logged outcome of this assay for the following molecule: "Cn1cc(-c2ccc3nnc(Sc4ccc5ncccc5c4)n3n2)cn1"
Response given: -1
